Source: paper PMC5819829

- measured.on: T1, EGFR-ECD (extracellular domain of human epidermal growth factor receptor, 1-643) (Homo sapiens, UniProt P00533, N-linked oligosaccharides cleaved by endoglycosidase H)
- T1 construct: human epidermal growth factor receptor, extracellular domain, residues 1-643 as printed; A TEV site between the ECD and the His-tag is implied by the cleavage; also called extracellular domain of human EGFR; human EGFR-ECD; source: HEK293S GnTI- cells, transient overexpression, secreted; purified (HisTrap, TEV cleavage of the His-tag, endoglycosidase H, HiTrap Q, SEC); not shown: His-tag, …
- method.notes: SPR; BIAcore 3000; EGFR-ECD immobilised on a CM5 chip by amine coupling; single-cycle kinetics with 50.0, 16.6, 5.55, 1.85 and 0.617 nM Fv or Fab; 30 ul/min, 60-s association, 120-s dissociation; 25 C; HBS-EP+ buffer; triplicate
- condition.notes: both partners purified
Kd reference
Write the answer as a number in nM, unit excluded.

Please review the following examples before continuing.
binder | Kd, nM
Alexa-488 conjugated 059-152-Fv (other, human, also in PDB 5XWD; linker inserted just before the stop codon, followed by the amber codon that is read as AzF; Fv; m3 after copper-free click chemistry; also called Alexa-488 conjugated Fv; not shown: N11-tag, N-terminal, cleaved) VH: QVQLQESGPGLVKPSETLSLTCTVSGGSISSSSYYWGWIRQPPGKGLEWIGSIYYSGSTYYNPSLKSRVTISVDTSKNQFSLKLSSVTAADTAVYYCARLPMVTMSFDYWGQGTLVTVSS VL: SYVLTQPPSVSVAPGKTARITCGGNNIGSKSVHWYQQKPGQAPVLVIYYDSDRPSGIPERFSGSNSGNTATLTISRVEAGDEADYYCQVWDSSSDHVVFGGGTKLTVL | 6.1
AzF-incorporated 059-152-Fab (Fab, V domains shown, also in PDB 5XWD; linker inserted just before the stop codon, followed by the amber codon that is read as AzF; AzF is the last residue of the VHCH1 chain, after the linker; also called AzF-incorporated Fab; not shown: N11-tag, N-terminal, cleaved) VH: QVQLQESGPGLVKPSETLSLTCTVSGGSISSSSYYWGWIRQPPGKGLEWIGSIYYSGSTYYNPSLKSRVTISVDTSKNQFSLKLSSVTAADTAVYYCARLPMVTMSFDYWGQGTLVTVSS VL: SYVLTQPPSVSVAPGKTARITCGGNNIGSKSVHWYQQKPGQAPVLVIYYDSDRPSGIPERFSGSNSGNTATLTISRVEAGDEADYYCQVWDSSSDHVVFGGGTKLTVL | 7

Next, consider the following binder.
Documented Kd of 059-152-Fv (Fv fragment of the fully human anti-EGFR antibody 059-152) (other, also in PDB 5XWD; VL also in PDB 5XWD; Fv: VH and VL synthesised together as two separate chains; source: cell-free synthesis (E. coli S30 extract, dialysis mode, 0.2 mg/ml DsbC), purified (HisTrap, TEV cleavage, SEC); not shown: N11-tag, N-terminal, cleaved) VH: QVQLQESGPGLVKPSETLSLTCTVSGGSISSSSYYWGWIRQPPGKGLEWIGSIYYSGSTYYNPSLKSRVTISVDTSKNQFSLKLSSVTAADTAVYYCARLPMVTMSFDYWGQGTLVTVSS VL: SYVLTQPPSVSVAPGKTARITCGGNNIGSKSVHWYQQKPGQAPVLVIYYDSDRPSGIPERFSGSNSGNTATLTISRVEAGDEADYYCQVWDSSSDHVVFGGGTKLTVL : 5.9
